Test system: M14 melanoma
Experiment: NCI tumour cell line growth inhibition, 48 h
Quick reference for TGI among some compounds

input: Suppose we examine the compound COc1c(CC=C(C)C)c(O)c(C(CC(C)C)c2c(O)c3c(c(C(C)=O)c2O)OC(C(C)(C)O)C3)c(O)c1C(C)=O (stereo not drawn) ; what TGI value has been reported?
output: > 12.5 µM

input: Suppose we examine the compound CC1=Nc2ccccc2S/C1=C(/C)NNS(=O)(=O)c1ccc(C)cc1 ; what TGI value has been reported?
output: > 100 µM

input: Suppose we examine the compound CC1=CC(=O)C2=C(C)CCC3C(C)C(=O)OC3C12 (stereo not drawn) ; what TGI value has been reported?
output: > 100 µM

input: Suppose we examine the compound COC(=O)C(NC(=O)C(CC(=O)OC(C)(C)C)NC(=O)OC(C)(C)C)C(O)c1ccccc1 (stereo not drawn) ; what TGI value has been reported?
output: > 100 µM

input: Suppose we examine the compound COc1ccccc1NC(=S)NN=C(C)c1cccc(C(C)=NNC(=S)Nc2ccccc2OC)n1 ; what TGI value has been reported?
output: 25.8 µM

Let's switch to this compound now.
input: Suppose we examine the compound O=C(CSc1nc2ccc([N+](=O)[O-])cc2s1)c1ccc2ccccc2c1 ; what TGI value has been reported?
output: > 100 µM

All figures here come from PubChem BioAssay (NCI).
